Reported pIC50 values are given for each entry in this list.
Biological target: Vascular endothelial growth factor receptor 2 (Homo sapiens, UniProt P35968)
Sequence (P35968 whole entry): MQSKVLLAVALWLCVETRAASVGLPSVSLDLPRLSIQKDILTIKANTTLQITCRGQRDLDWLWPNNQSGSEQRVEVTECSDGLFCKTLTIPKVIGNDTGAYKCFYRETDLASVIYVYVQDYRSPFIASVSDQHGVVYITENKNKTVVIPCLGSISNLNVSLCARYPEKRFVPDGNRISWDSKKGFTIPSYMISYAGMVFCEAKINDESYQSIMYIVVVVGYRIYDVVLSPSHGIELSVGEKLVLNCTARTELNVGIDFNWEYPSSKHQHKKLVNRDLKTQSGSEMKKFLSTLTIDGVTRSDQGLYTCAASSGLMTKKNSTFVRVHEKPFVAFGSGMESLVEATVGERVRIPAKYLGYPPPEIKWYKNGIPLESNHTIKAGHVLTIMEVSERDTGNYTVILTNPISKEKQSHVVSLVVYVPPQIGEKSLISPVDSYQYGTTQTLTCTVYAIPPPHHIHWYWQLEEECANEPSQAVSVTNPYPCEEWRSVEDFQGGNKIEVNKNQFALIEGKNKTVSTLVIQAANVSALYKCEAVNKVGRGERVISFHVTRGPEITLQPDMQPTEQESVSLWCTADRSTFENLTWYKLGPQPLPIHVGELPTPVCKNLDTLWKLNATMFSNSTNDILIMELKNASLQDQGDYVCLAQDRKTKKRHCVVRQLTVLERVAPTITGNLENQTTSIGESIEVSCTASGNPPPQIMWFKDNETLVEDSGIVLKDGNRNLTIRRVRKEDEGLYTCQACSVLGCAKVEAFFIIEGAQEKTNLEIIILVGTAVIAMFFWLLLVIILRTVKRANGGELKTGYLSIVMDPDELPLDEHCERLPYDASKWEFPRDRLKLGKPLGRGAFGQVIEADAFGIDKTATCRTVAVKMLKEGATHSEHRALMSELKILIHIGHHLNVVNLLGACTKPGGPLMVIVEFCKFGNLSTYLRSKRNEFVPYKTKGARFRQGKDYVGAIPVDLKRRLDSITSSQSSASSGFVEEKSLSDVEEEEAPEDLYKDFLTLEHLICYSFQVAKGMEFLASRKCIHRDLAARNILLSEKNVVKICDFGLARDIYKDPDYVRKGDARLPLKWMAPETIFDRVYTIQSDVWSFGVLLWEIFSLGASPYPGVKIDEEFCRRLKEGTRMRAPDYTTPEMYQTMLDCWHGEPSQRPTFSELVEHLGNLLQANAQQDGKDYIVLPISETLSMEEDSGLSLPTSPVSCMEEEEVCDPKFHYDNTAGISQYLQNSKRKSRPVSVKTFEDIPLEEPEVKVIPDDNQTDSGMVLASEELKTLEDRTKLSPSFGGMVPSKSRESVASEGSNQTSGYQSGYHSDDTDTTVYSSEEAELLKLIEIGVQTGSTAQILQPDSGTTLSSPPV
pIC50: −log10 of the molar value.
Reported Property: pIC50

{"Compound Structure": "Cc1ccc(CN2C(=O)/C(=N\\c3ccc(NC(=O)Nc4ccc(S(N)(=O)=O)cc4)cc3)c3ccccc32)cc1", "Reported Property": "pIC50", "Data Value": 6.34}
{"Compound Structure": "CN1C(=O)/C(=N\\c2ccc(NC(=O)Nc3ccc(S(N)(=O)=O)cc3)cc2)c2cc(Cl)ccc21", "Reported Property": "pIC50", "Data Value": 6.58}

====

Biological target: Carbonic anhydrase 1 (Homo sapiens)
Experiment: Inhibition of recombinant human carbonic anhydrase 1 by stopped flow CO2 hydration assay
pKi: −log10 of the molar value.

{"Compound Structure": "NS(=O)(=O)c1ccc(NC(=O)Nc2ccc(/N=C3\\C(=O)N(Cc4ccccc4)c4ccccc43)cc2)cc1", "pKi": 6.19}
{"Compound Structure": "NS(=O)(=O)c1ccc(NC(=O)Nc2ccc(/N=C3\\C(=O)N(Cc4cccc(F)c4)c4ccc(Cl)cc43)cc2)cc1", "pKi": 5.29}
{"Compound Structure": "CCCN1C(=O)/C(=N\\c2ccc(NC(=O)Nc3ccc(S(N)(=O)=O)cc3)cc2)c2ccccc21", "pKi": 6.03}
{"Compound Structure": "CN1C(=O)/C(=N\\c2ccc(NC(=O)Nc3ccc(S(N)(=O)=O)cc3)cc2)c2cc(Br)ccc21", "pKi": 5.71}
{"Compound Structure": "CCCN1C(=O)/C(=N\\c2ccc(NC(=O)Nc3ccc(S(N)(=O)=O)cc3)cc2)c2cc(Br)ccc21", "pKi": 5.53}
{"Compound Structure": "Cc1ccc(CN2C(=O)/C(=N\\c3ccc(NC(=O)Nc4ccc(S(N)(=O)=O)cc4)cc3)c3cc(Br)ccc32)cc1", "pKi": 5.33}
{"Compound Structure": "N#Cc1ccc(CN2C(=O)/C(=N\\c3ccc(NC(=O)Nc4ccc(S(N)(=O)=O)cc4)cc3)c3cc(Cl)ccc32)cc1", "pKi": 5.08}
{"Compound Structure": "NS(=O)(=O)c1ccc(NC(=O)Nc2ccc(/N=C3\\C(=O)N(Cc4cccc(F)c4)c4ccc(Br)cc43)cc2)cc1", "pKi": 5.33}

====

Target: Carbonic anhydrase 1 (Homo sapiens, UniProt P00915)
Sequence (P00915 whole entry): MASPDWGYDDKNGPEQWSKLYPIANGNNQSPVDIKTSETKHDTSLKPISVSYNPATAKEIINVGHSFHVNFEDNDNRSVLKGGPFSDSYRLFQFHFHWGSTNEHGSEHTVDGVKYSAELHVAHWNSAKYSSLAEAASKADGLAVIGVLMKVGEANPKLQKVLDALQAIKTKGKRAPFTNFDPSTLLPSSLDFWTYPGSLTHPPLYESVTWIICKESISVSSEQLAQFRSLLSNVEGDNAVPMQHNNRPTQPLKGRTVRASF
Experiment: Inhibition of recombinant human carbonic anhydrase 1 by stopped flow CO2 hydration assay
pKi: −log10 of the molar value.
Recorded pKi values for a group of molecules are listed next.

{"Compound Structure": "Cc1ccc(CN2C(=O)/C(=N\\c3ccc(NC(=O)Nc4ccc(S(N)(=O)=O)cc4)cc3)c3ccccc32)cc1", "pKi": 5.18}
{"Compound Structure": "CN1C(=O)/C(=N\\c2ccc(NC(=O)Nc3ccc(S(N)(=O)=O)cc3)cc2)c2cc(Cl)ccc21", "pKi": 6.39}
{"Compound Structure": "N#Cc1ccc(CN2C(=O)/C(=N\\c3ccc(NC(=O)Nc4ccc(S(N)(=O)=O)cc4)cc3)c3cc(Br)ccc32)cc1", "pKi": 5.23}
{"Compound Structure": "CN1C(=O)/C(=N\\c2ccc(NC(=O)Nc3ccc(S(N)(=O)=O)cc3)cc2)c2ccccc21", "pKi": 6.05}
{"Compound Structure": "Cc1ccc(CN2C(=O)/C(=N\\c3ccc(NC(=O)Nc4ccc(S(N)(=O)=O)cc4)cc3)c3cc(Cl)ccc32)cc1", "pKi": 5.21}
{"Compound Structure": "NS(=O)(=O)c1ccc(NC(=O)Nc2ccc(/N=C3\\C(=O)N(Cc4ccccc4)c4ccc(Cl)cc43)cc2)cc1", "pKi": 5.60}
{"Compound Structure": "NS(=O)(=O)c1ccc(NC(=O)Nc2ccc(/N=C3\\C(=O)N(Cc4cccc(F)c4)c4ccccc43)cc2)cc1", "pKi": 5.68}
{"Compound Structure": "NS(=O)(=O)c1ccc(NC(=O)Nc2ccc(/N=C3\\C(=O)N(Cc4ccccc4)c4ccc(Br)cc43)cc2)cc1", "pKi": 5.23}
{"Compound Structure": "CCCN1C(=O)/C(=N\\c2ccc(NC(=O)Nc3ccc(S(N)(=O)=O)cc3)cc2)c2cc(Cl)ccc21", "pKi": 6.22}
{"Compound Structure": "N#Cc1ccc(CN2C(=O)/C(=N\\c3ccc(NC(=O)Nc4ccc(S(N)(=O)=O)cc4)cc3)c3ccccc32)cc1", "pKi": 5.64}

Where do the numbers come from? From ChEMBL document CHEMBL4382220.
